Experiment: Human HepG2 cell viability assay in 384 well format
Assay type: toxicity, cell-based
Design: dose 125 nL, time 70.5 hour; concentration not given beside the values
Conditions: HepG2 cells, read-out: Inhibition
cytotoxicity at 70.5 h values for the compounds below.
Respond with the figure and its unit, in that order.

What value of measured cytotoxicity at 70.5 h is listed for Cc1nc2ccccc2nc1NCc1cccc(OCC2CCCO2)c1 (stereo unspecified) ?
0.538%

What value of measured cytotoxicity at 70.5 h is listed for CCN(CC)Cc1cn2c(n1)CN(C(=O)c1cc(C)on1)CC2 ?
-13.3%

What value of measured cytotoxicity at 70.5 h is listed for NC(=O)C1CCN(C(=O)NCc2ccccc2Cn2ccnc2)CC1 ?
-6.43%

// provenance: ChEMBL document CHEMBL3507680
